- study target: T1, 4H2233-bH
- T1 chain: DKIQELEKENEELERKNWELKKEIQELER
- assay procedure: two-hybrid library CCNG1;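 also: natural log of median RNA to DNA barcode read ratio; higher means stronger binding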
Threshold rule: interaction score greater than or equal to 0.3 is class 1; below that, class 0.

Textbook exercise: given the entry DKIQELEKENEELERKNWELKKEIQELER [4H2233-bH] , state whether its interaction score is greater than or equal to 0.3.
class 0

Check the entry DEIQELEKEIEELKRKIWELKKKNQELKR [4H112-bH] : does interaction score equal or exceed 0.3?
class 0

Confirm if interaction score reported for the binder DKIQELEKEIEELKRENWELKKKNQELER [4H2143-bH] is 0.3 or above.
class 1

Test whether the binder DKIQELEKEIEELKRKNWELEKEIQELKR [4H2162-bH] records interaction score of 0.3 or higher.
class 0

// inclusive: interaction score at least 0.3? input: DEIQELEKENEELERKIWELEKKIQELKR [4H166-bH]
class 1
